assay: qHTS assay to identify small molecule agonists of the TGF-beta/Smad signaling pathway - cell viability counter screen (AID 1346829); settings: SBE-bla HEK293T viability, CellTiter-Glo luminescence, 5 h; series mostly up to 76.8 µM; also: top concentration of the series differs between compounds; nearly all actives have a fitted effect of over 45% in size
Records with an inconclusive call do not appear. Active and inactive are the calls of the source. Calls follow the shape of the dose curve; as a rule, active = well fitted cell-killing curve with a large enough effect in the repeat runs; inconclusive = weak or mixed curves, or effect the other way; inactive = flat fitted curve, though single readings scatter.

>  <molecule>
CC1=CC[C@@]23C[C@@H]1C(C)(C)[C@@H]2CC[C@H]3C

>  <activity change, negative = cytotoxicity>
inactive

$$$$
>  <molecule>
CC(CO)(CO)C(=O)O

>  <activity change, negative = cytotoxicity>
inactive

$$$$
>  <molecule>
O=C1NC(=O)c2cccc3cccc1c23

>  <activity change, negative = cytotoxicity>
inactive

$$$$
>  <molecule>
c1ccc(CNc2ncnc3c2ncn3C2CCCCO2)cc1 (centres undefined)

>  <activity change, negative = cytotoxicity>
inactive

$$$$
>  <molecule>
[Cl][Nd]([Cl])[Cl]

>  <activity change, negative = cytotoxicity>
inactive

$$$$
>  <molecule>
CNCc1ccc(NC(=O)c2c[nH]c3c2C(=O)CCC3)cc1

>  <activity change, negative = cytotoxicity>
inactive

$$$$
>  <molecule>
CCCCCCCC(=O)OCCCCCC

>  <activity change, negative = cytotoxicity>
inactive

$$$$
>  <molecule>
CCCCCC

>  <activity change, negative = cytotoxicity>
inactive

$$$$
>  <molecule>
Nc1cccc2c(N)cccc12

>  <activity change, negative = cytotoxicity>
inactive

$$$$
>  <molecule>
CCc1ccc(C)cc1

>  <activity change, negative = cytotoxicity>
inactive

$$$$
>  <molecule>
FC(F)(F)C(F)(F)C(F)(F)C(F)(F)CCI

>  <activity change, negative = cytotoxicity>
inactive

$$$$
>  <molecule>
CCN(CC)CCOc1ccccc1C(=O)CCc1ccccc1

>  <activity change, negative = cytotoxicity>
inactive

$$$$
>  <molecule>
O=C(O)c1cc(Cl)cc(Cl)c1O

>  <activity change, negative = cytotoxicity>
inactive

$$$$
>  <molecule>
CCN(CC)CC(=O)Nc1c(C)cccc1C(=O)OC

>  <activity change, negative = cytotoxicity>
inactive

$$$$

----------
Experiment: qHTS assay for identifying genotoxic compounds that show differential cytotoxicity against isogenic chicken DT40 cell lines with known DNA damage response pathways - Rev3 mutant cell line (AID 743014); also: nearly all actives have a fitted effect of over 55% in size
Conditions: chicken DT40 Rev3-/- viability, CellTiter-Glo, 40 h; series mostly up to 68.4 µM
Excerpt: National Center for Advancing Translational Sciences [NCATS] NIH Chemical Genomics Center [NCGC] U.S. Environmental Protection Agency [EPA] National Institutes of Environmental Health Sciences [NIEHS] National Toxicology Program [NTP] U.S. Food and Drug Administration [FDA] DNA repair pathways play a critical role in cellular homeostasis by repairing DNA damage induced by endogenous processes and xenobiotics. […]
Records with an inconclusive call do not appear. Calls of active or inactive are those of the source. The call rests on the fitted dose curve; in most records, active means well fitted cell-killing curve with a large enough effect in the repeat runs; inconclusive means weak or mixed curves, or effect the other way; inactive means no such curve, though single readings can be large or run the other way.
Possible outcomes: active, inactive

>  <compound>
O=C(O)c1cccc(Oc2ccccc2)c1

>  <label.value>
inactive

$$$$
>  <compound>
CCC(C)(C)C(=O)O

>  <label.value>
inactive

$$$$
>  <compound>
COc1cc(NCc2ccc3nc(N)nc(N)c3c2C)cc(OC)c1OC

>  <label.value>
active

$$$$
>  <compound>
O=C1NC(=O)c2cccc3cccc1c23

>  <label.value>
inactive

$$$$
>  <compound>
CC(C)(C)CCCCCCOC(=O)c1ccccc1C(=O)OCCCCCCC(C)(C)C

>  <label.value>
inactive

$$$$
>  <compound>
CC(C)C(O)C(C)(C)CO (centres undefined)

>  <label.value>
inactive

$$$$
>  <compound>
CCN(CC)C(=O)N1CCN(C)CC1

>  <label.value>
inactive

$$$$
>  <compound>
CC(C(=O)O)c1ccc(C(=O)c2cccs2)cc1 (centres undefined)

>  <label.value>
inactive

$$$$
>  <compound>
COc1ccc(N)c([N+](=O)[O-])c1

>  <label.value>
inactive

$$$$
>  <compound>
CC(C)OC(=O)c1ccccc1C(=O)OC(C)C

>  <label.value>
active

$$$$
>  <compound>
O=C1CC[C@@H](C(=O)O)N1

>  <label.value>
inactive

$$$$
>  <compound>
N[C@@H](Cc1cc(I)c(O)c(I)c1)C(=O)O

>  <label.value>
inactive

$$$$
>  <compound>
C[C@@H]1[C@H](O)[C@@H](C)/C=C/C=C\C=C\C=C\C=C\C=C\C=C\[C@H](O[C@@H]2O[C@H](C)[C@@H](O)[C@H](N)[C@@H]2O)C[C@@H]2O[C@](O)(C[C@@H](O)C[C@@H](O)[C@H](O)CC[C@@H](O)C[C@@H](O)CC(=O)O[C@H]1C)C[C@H](O)[C@H]2C(=O)O (stereo in doubt)

>  <label.value>
inactive

$$$$
>  <compound>
O=C1OC[C@H](Cc2cccc(O)c2)[C@H]1Cc1cccc(O)c1

>  <label.value>
inactive

$$$$
>  <compound>
CC(=O)NNC(C)=O

>  <label.value>
inactive

$$$$
>  <compound>
CC(C)COC(=O)COc1cc(Cl)c(Cl)cc1Cl

>  <label.value>
inactive

$$$$
>  <compound>
O=C(NC(Cc1cc(=O)[nH]c2ccccc12)C(=O)O)c1ccc(Cl)cc1 (centres undefined)

>  <label.value>
inactive

$$$$
>  <compound>
CC(C)(O)CCc1ccccc1

>  <label.value>
inactive

$$$$
>  <compound>
Cc1ccc2c(c1)CCCN2

>  <label.value>
inactive

$$$$
>  <compound>
O=C(/C=C/c1ccc([N+](=O)[O-])cc1)c1ccccc1

>  <label.value>
inactive

$$$$
>  <compound>
CCCCCCCCCCCCCC(=O)OCC(O)CO (centres undefined)

>  <label.value>
active

$$$$
>  <compound>
O=C(C(=O)c1ccco1)c1ccco1

>  <label.value>
inactive

$$$$
>  <compound>
CCCc1nc2c(C)cc(-c3nc4ccccc4n3C)cc2n1Cc1ccc(-c2ccccc2C(=O)O)cc1

>  <label.value>
inactive

$$$$
>  <compound>
CSCC[C@H](NC(=O)[C@H](Cc1c[nH]c2ccccc12)NC(=O)CCNC(=O)OC(C)(C)C)C(=O)N[C@@H](CC(=O)O)C(=O)N[C@@H](Cc1ccccc1)C(N)=O

>  <label.value>
inactive

$$$$
>  <compound>
CCOC(=O)c1c(N)sc2c1CCN(Cc1ccccc1)C2

>  <label.value>
active

$$$$
>  <compound>
CC(C)(C)NCC(O)COc1cccc2c1C[C@H](O)[C@H](O)C2 (some centres undefined)

>  <label.value>
inactive

$$$$
>  <compound>
O=NN(CCCl)C(=O)NCCCl

>  <label.value>
inactive

$$$$
>  <compound>
O=C(Nc1ccc(C(=O)O)c(O)c1)c1ccccc1

>  <label.value>
inactive

$$$$
>  <compound>
Cc1cc([N+](=O)[O-])ccc1N

>  <label.value>
inactive

$$$$
>  <compound>
C/C(C=O)=C\c1ccccc1

>  <label.value>
inactive

$$$$
>  <compound>
CC(C)(C)S

>  <label.value>
inactive

$$$$
>  <compound>
C=Cc1ccc(OC(C)=O)cc1

>  <label.value>
inactive

$$$$
>  <compound>
C=CC(=O)NC(C)C

>  <label.value>
inactive

$$$$
>  <compound>
CC(C)c1ccc(C#N)cc1

>  <label.value>
inactive

$$$$
>  <compound>
CC(=O)OCCC(C)CC(C)(C)C (centres undefined)

>  <label.value>
inactive

$$$$
>  <compound>
Cc1cn([C@H]2C[C@H](F)[C@@H](CO)O2)c(=O)[nH]c1=O

>  <label.value>
inactive

$$$$
>  <compound>
COc1cc(C(C)=O)ccc1OCCCN1CCC(c2noc3cc(F)ccc23)CC1

>  <label.value>
active

$$$$
>  <compound>
CNC1CCCN(c2c(F)cc3c(=O)c(C(=O)O)cn(C4CC4)c3c2OC)C1 (centres undefined)

>  <label.value>
inactive

$$$$
>  <compound>
CC(C)C(=O)OCCOc1ccccc1

>  <label.value>
inactive

$$$$
>  <compound>
Cc1cccc(C)c1NC(=O)c1cc(S(N)(=O)=O)c(Cl)cc1O

>  <label.value>
inactive

$$$$
>  <compound>
CCC1CCC(CCC(=O)O)C1 (centres undefined)

>  <label.value>
inactive

$$$$
>  <compound>
C=CC(=O)O

>  <label.value>
inactive

$$$$
>  <compound>
O=[N+]([O-])C1(Br)COCOC1

>  <label.value>
active

$$$$
>  <compound>
CCCC(=O)OC(=O)CCC

>  <label.value>
inactive

$$$$
>  <compound>
O=S(=O)(Cl)c1c(Cl)cccc1Cl

>  <label.value>
inactive

$$$$
>  <compound>
O=[N+]([O-])c1ccc2ncccc2c1

>  <label.value>
inactive

$$$$
>  <compound>
CC(=O)OCC(=O)[C@@]1(OC(C)=O)[C@@H](C)C[C@H]2[C@@H]3C[C@H](F)C4=CC(=O)C=C[C@]4(C)[C@@]3(F)[C@@H](O)C[C@@]21C

>  <label.value>
active

$$$$
>  <compound>
CNS(=O)(=O)c1cc(C(=O)N2CCC(CCN3C4CCC3CC(n3c(C)nc5ccccc53)C4)(c3cccc(F)c3)CC2)c(Cl)cc1F (centres undefined)

>  <label.value>
active

$$$$
>  <compound>
O=C1OC(=O)c2c(Br)c(Br)c(Br)c(Br)c21

>  <label.value>
inactive

$$$$
